- assay-summary: folding enthalpy; higher = less favourable; fluorescence melt of hairpins on a sequencing array, two-state fit
- particulars: sodium 0.088 M
measured-attribute: folding enthalpy (kcal/mol)
Numbers only; they are read as kcal/mol.

Study these solved cases before continuing.
>  <macromolecule-sequence>
GTACCCGCGAAAGCGTAC (((..(((....))))))

>  <folding enthalpy, kcal/mol>
-8.05

$$$$
>  <macromolecule-sequence>
GATCTATTCGTAGATC ((((((....))))))

>  <folding enthalpy, kcal/mol>
-33.5

$$$$
>  <macromolecule-sequence>
GTAAGGCGAAAGCCGTAC (((.(((....))).)))

>  <folding enthalpy, kcal/mol>
-14.2

$$$$
>  <macromolecule-sequence>
GGACATGCGAAAGCATCC (((..(((....))))))

>  <folding enthalpy, kcal/mol>
-10.8

$$$$
>  <macromolecule-sequence>
GGCTCAGGAAACCGAGCC (((((.(....).)))))

>  <folding enthalpy, kcal/mol>
-49.1

$$$$
>  <macromolecule-sequence>
GGGCGCCCGAAAGGGCCC (((..(((....))))))

>  <folding enthalpy, kcal/mol>
-11.5

$$$$
>  <macromolecule-sequence>
GATCCAAAGTTGGATC ((((((....))))))

>  <folding enthalpy, kcal/mol>
-35.2

$$$$
>  <macromolecule-sequence>
GGTGTCGAAAGACAACC ((((((....))).)))

>  <folding enthalpy, kcal/mol>
-26.1

$$$$
>  <macromolecule-sequence>
GCCAAGCCGAAAGGCGGC (((..(((....))))))

>  <folding enthalpy, kcal/mol>
-16.1

$$$$
>  <macromolecule-sequence>
GGTCCCGAAAGGGAAACC ((((((....)))..)))

>  <folding enthalpy, kcal/mol>
-15.3

$$$$

Value of measured folding enthalpy for the entry GGAGACGAAAGTCGTCC ((((((....))).))) : -14.3

Value of measured folding enthalpy for the entry GAACTGGCGAAAGCCTTC (((..(((....)))))) : -6.15

* * *

- assay-summary: folding enthalpy; higher = less favourable; fluorescence melt of hairpins on a sequencing array, two-state fit
- particulars: sodium 0.088 M
Field: class. Source value: folding enthalpy. Ranges: label 0 (below -30 kcal/mol), label 1 (-30 kcal/mol to below -20 kcal/mol), label 2 (-20 kcal/mol or more)

Worked cases, answers included:
>  <macromolecule-sequence>
GTCCTCGAAAGAGCGAC ((((((....))).)))

>  <category-label>
label 1

$$$$
>  <macromolecule-sequence>
GATCCGGAGTCGGATC ((((((....))))))

>  <category-label>
label 0

$$$$

Where would GATCAGACAGCTGATC ((((((....)))))) land among the classes by reported folding enthalpy? label 0

Where would GGGAAGGCGAAAGCCCCC (((..(((....)))))) land among the classes by reported folding enthalpy? label 2

Where would GAGCCCGAAAGGGCCCTC ((((((....)))..))) land among the classes by reported folding enthalpy? label 2

* * *

- assay-summary: melting temperature; fluorescence melt of hairpins on a sequencing array, two-state fit, raised by 9.35 °C to match UV melts
- particulars: sodium 0.088 M
Yes means recorded Tm is 50 °C or above; No means it is below 50 °C.

>  <macromolecule-sequence>
GATCTGCTCTCAGATC ((((((....))))))

>  <category-label>
No

$$$$
>  <macromolecule-sequence>
GCAGAGGGAAACCTCCGC ((.((((....)))).))

>  <category-label>
No

$$$$
>  <macromolecule-sequence>
GTCCCCACGAAAGTGGAC (((..(((....))))))

>  <category-label>
No

$$$$

# bool: Tm of GGGATCGGAAACGATCTC (.(((((....))))).) >= 50 °C Yes

# bool: Tm of GTGGGTGGAAACACTCAC (((.(((....))).))) >= 50 °C Yes

# bool: Tm of GCCACCCGAAAGGGGGC (((.(((....)))))) >= 50 °C Yes

# bool: Tm of GTAGTCGGAAACAACTAC (((((.(....).))))) >= 50 °C No

# bool: Tm of GGCAATGAAAATTGCC ((((((....)))))) >= 50 °C Yes

* * *

- assay-summary: folding enthalpy; higher = less favourable; fluorescence melt of hairpins on a sequencing array, two-state fit
- particulars: sodium 0.088 M
Satisfied means recorded folding enthalpy is -20 kcal/mol or above; Not satisfied means it is below -20 kcal/mol.

Worked cases, answers included:
>  <macromolecule-sequence>
GTAGTACCGAAAGGTTAC (((..(((....))))))

>  <category-label>
Satisfied

$$$$
>  <macromolecule-sequence>
GAAGACGAAAGTCCGTTC ((((((....)))..)))

>  <category-label>
Satisfied

$$$$
>  <macromolecule-sequence>
GGTGGAGCGAAAGCTACC (((..(((....))))))

>  <category-label>
Satisfied

$$$$
>  <macromolecule-sequence>
GGACACGAAAGTGTTCC ((((((....))).)))

>  <category-label>
Satisfied

$$$$
>  <macromolecule-sequence>
GAAGTCGGAAACGACTCC (.(((((....))))).)

>  <category-label>
Satisfied

$$$$
>  <macromolecule-sequence>
GTTTAGGGAAACCTAAAC (((((((....)))))))

>  <category-label>
Not satisfied

$$$$
>  <macromolecule-sequence>
GGGTTTGAAAAAACCC ((((((....))))))

>  <category-label>
Not satisfied

$$$$
>  <macromolecule-sequence>
GATCTGGTAACAGATC ((((((....))))))

>  <category-label>
Not satisfied

$$$$
>  <macromolecule-sequence>
GATCTCTGGTGAGATC ((((((....))))))

>  <category-label>
Not satisfied

$$$$
>  <macromolecule-sequence>
GATGGTGGAAACACTATC (((.(((....))).)))

>  <category-label>
Not satisfied

$$$$

# bool: folding enthalpy of GATCTATGCATAGATC ((((((....)))))) >= -20 kcal/mol Not satisfied

# bool: folding enthalpy of GTCAGGCGAAAGCCGAC (((.(((....)))))) >= -20 kcal/mol Satisfied

# bool: folding enthalpy of GGGGGTGGAAACGCCTCC ((.((.(....).)).)) >= -20 kcal/mol Not satisfied

# bool: folding enthalpy of GTGCCAGGAAACTGGCGC (.(((((....))))).) >= -20 kcal/mol Not satisfied

# bool: folding enthalpy of GTTAACGGAAACGTCAAC (((.(((....))).))) >= -20 kcal/mol Satisfied

# bool: folding enthalpy of GGGATTACGAAAGTACCC (((..(((....)))))) >= -20 kcal/mol Satisfied

# bool: folding enthalpy of GATCAAGTATTTGATC ((((((....)))))) >= -20 kcal/mol Not satisfied

# bool: folding enthalpy of GCAAGAGGAAACTCTTAC (.(((((....))))).) >= -20 kcal/mol Satisfied

# bool: folding enthalpy of GTTTTAGGAAACTAAGAC ((.((((....)))).)) >= -20 kcal/mol Satisfied

# bool: folding enthalpy of GTTGAGCGAAAGCTAAAC (((.(((....))).))) >= -20 kcal/mol Not satisfied

# bool: folding enthalpy of GCGGCTACGAAAGTACGC (((..(((....)))))) >= -20 kcal/mol Not satisfied

# bool: folding enthalpy of GTCGCCCCGAAAGGGGAC (((..(((....)))))) >= -20 kcal/mol Satisfied

# bool: folding enthalpy of CGCGGATGGCTCCGCG ((((((....)))))) >= -20 kcal/mol Not satisfied

# bool: folding enthalpy of GCGTGGGGAAACCCGCGC (((.(((....))).))) >= -20 kcal/mol Not satisfied

# bool: folding enthalpy of GTTGCAGCGAAAGCTAAC (((..(((....)))))) >= -20 kcal/mol Satisfied

* * *

- assay-summary: folding enthalpy; higher = less favourable; fluorescence melt of hairpins on a sequencing array, two-state fit
- particulars: sodium 0.088 M
class 1 means recorded folding enthalpy is -20 kcal/mol or above; class 0 means it is below -20 kcal/mol.

Worked cases, answers included:
>  <macromolecule-sequence>
GGGCTCGGAAACGAGTCC ((.((((....)))).))

>  <category-label>
class 0

$$$$
>  <macromolecule-sequence>
GGCACTGGAAACAGCACC ((..(((....)))..))

>  <category-label>
class 1

$$$$

# bool: folding enthalpy of GCGTAGCGAAAGCGCCGC (((..((....))..))) >= -20 kcal/mol class 1

* * *

- assay-summary: melting temperature; fluorescence melt of hairpins on a sequencing array, two-state fit, raised by 9.35 °C to match UV melts
- particulars: sodium 0.088 M
measured-attribute: Tm (°C)
Numbers only; they are read as °C.

Study these solved cases before continuing.
>  <macromolecule-sequence>
GGAGTAGGAAACTATTCC (((.(((....))).)))

>  <unit-of-measurement>
°C

>  <Tm>
37.5

$$$$
>  <macromolecule-sequence>
GAGCCCGGAAACGAGCCC (.((.((....)).)).)

>  <unit-of-measurement>
°C

>  <Tm>
29.1

$$$$
>  <macromolecule-sequence>
GATCCGCATACGGATC ((((((....))))))

>  <unit-of-measurement>
°C

>  <Tm>
61.5

$$$$
>  <macromolecule-sequence>
GCGTTAAGACGC ((((....))))

>  <unit-of-measurement>
°C

>  <Tm>
54

$$$$
>  <macromolecule-sequence>
GCCATAGCGAAAGCTGGC (((..(((....))))))

>  <unit-of-measurement>
°C

>  <Tm>
56.5

$$$$

Would you kindly look at the next entry?
Value of measured Tm for the entry GCGTGCGAAAGCAACCGC ((((((....)))..))) : 53.7
